- Test system: JHOS2
- measurement.protocol: drug sensitivity score (DSS) from 5-point dose-response viability curve (DSS (area-under-curve based score)); higher = more sensitive (stronger growth inhibition or killing); extreme values may be limits of the assay
- test.conditions: exposure time: 72 h; concentration range: 5 concentrations over 10,000-fold range
reported.property: drug sensitivity score

> print(dat)
                                   compound  quantitative.result
1  CC[C@H](CO)Nc1nc(NCc2ccccc2)c2ncn(C(C)C)c2n1 [Seliciclib]                  1.2
2  Cc1cc(C)c(CNC(=O)c2cc(-c3ccc(CN4CCOCC4)cc3)cc3c2cnn3C2CCCC2)c(=O)[nH]1 [EPZ-5687]                    0
3  CCc1cnn2c(NCc3ccc[n+]([O-])c3)cc(N3CCCC[C@H]3CCO)nc12 [Dinaciclib]                   19
4  C=CCc1cccc(/C=N/NC(=O)CN2CCN(Cc3ccccc3)CC2)c1O [PAC-1]                  0.7
5  CNC(=O)c1ccc(N2C(=S)N(c3ccc(C#N)c(C(F)(F)F)c3)C(=O)C2(C)C)cc1F [Enzalutamide]                    0
